- target-or-system: Neuropeptide Y receptor type 1 (Homo sapiens) (UniProt P25929)
- Sequence (P25929 whole entry, looked up): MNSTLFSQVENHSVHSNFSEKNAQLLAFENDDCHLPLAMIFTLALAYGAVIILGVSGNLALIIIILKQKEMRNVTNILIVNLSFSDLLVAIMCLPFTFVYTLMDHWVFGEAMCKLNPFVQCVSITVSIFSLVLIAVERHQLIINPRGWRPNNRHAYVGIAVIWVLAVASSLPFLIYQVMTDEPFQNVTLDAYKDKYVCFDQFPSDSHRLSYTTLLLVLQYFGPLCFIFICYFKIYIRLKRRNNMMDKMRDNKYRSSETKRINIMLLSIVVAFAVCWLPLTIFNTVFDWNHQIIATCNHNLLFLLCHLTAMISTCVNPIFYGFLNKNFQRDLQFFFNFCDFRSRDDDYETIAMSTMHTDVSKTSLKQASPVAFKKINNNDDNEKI
- experimental-details: blockers of human neuropeptide Y Y1 receptor – cell-based, primary screen (AID 1040);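 also: 0% = DMSO wells given NPY plus isoproterenol and 100% = isoproterenol alone without NPY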
- settings: HEK293-CNG Y1 cells, membrane potential fluorescence; at 3.6 µM; NPY at EC95, then isoproterenol
Among all 200,000 compounds or so, about 2,000 (1%) were called active.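 The calls were made as follows: active = inhibition above the campaign mean inhibition of all tested compounds plus 3 SD (cut at about 20% in these data); inactive = the rest.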 This excerpt belongs to a sample that is enriched for actives.
Respond with a class label; see yes for active, no for inactive

Use the examples below as a reference point.
>  <compound>
CC(Oc1ccccc1F)C(=O)NN (centres undefined)

>  <label>
no

$$$$
>  <compound>
CC1CN(CCCOc2ccccc2-c2ccccc2)CC(C)O1 (centres undefined)

>  <label>
yes

$$$$

Enquiry: Recorded call for Cc1ccc(COc2ccc(/C=N/NC(=O)CN3CCCCC3)cc2)cc1 ?
Return: no

Enquiry: Recorded call for O=C(O)CCC(=O)Nc1nc2ccc([N+](=O)[O-])cc2s1 ?
Return: no

Enquiry: Recorded call for COn1c(-c2ccc(Cl)cc2Cl)nc2ncccc21 ?
Return: no

Enquiry: Recorded call for COc1ccccc1OCc1ccc(C(=O)N2CCN(C)CC2)o1 ?
Return: no

====

- target-or-system: Neuropeptide Y receptor type 1 (Homo sapiens)
- experimental-details: blockers of human neuropeptide Y Y1 receptor – cell-based, primary screen (AID 1040);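 also: 0% = DMSO wells given NPY plus isoproterenol and 100% = isoproterenol alone without NPY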
- settings: HEK293-CNG Y1 cells, membrane potential fluorescence; at 3.6 µM; NPY at EC95, then isoproterenol
Among all 200,000 compounds or so, about 2,000 (1%) were called active.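 The calls were made as follows: active = inhibition above the campaign mean inhibition of all tested compounds plus 3 SD (cut at about 20% in these data); inactive = the rest.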 The entries come from a sample that favours actives as a whole.
Respond with a class label; see class 1 = active, class 0 = inactive

>  <compound>
CS(=O)(=O)n1nc(-c2ccccc2)nc1NCc1ccco1

>  <label>
class 0

$$$$

Enquiry: Recorded call for CS(=O)(=O)N(CC(=O)N1CCCC1)Cc1ccccc1 ?
Return: class 0

Enquiry: Recorded call for CCS(=O)(=O)n1nc(-c2ccccc2)nc1SCc1ccccc1 ?
Return: class 1

Enquiry: Recorded call for OCCNCc1cccc(OCc2ccccc2Cl)c1 ?
Return: class 0

Enquiry: Recorded call for CCO[C@H]1OC(C(=O)O)=C[C@@H](C2CCCCC2)[C@@H]1CCCO ?
Return: class 0

Enquiry: Recorded call for Cc1cc2c(c(=O)n1C)C(C(C)C)C(C#N)=C(N)O2 (stereo unspecified) ?
Return: class 0

Enquiry: Recorded call for Cc1cccc2cc(CN(Cc3cccs3)C(c3nnnn3C3CCCC3)C(C)C)c(=O)[nH]c12 (stereo unspecified) ?
Return: class 0

Enquiry: Recorded call for Cc1cccc2cc(CN(Cc3ccc4c(c3)OCO4)Cc3nnnn3C3CCCC3)c(=O)[nH]c12 ?
Return: class 0

Enquiry: Recorded call for C=CCOC(=O)C1=C(C)OC(N)=C(C#N)C1c1ccc(F)cc1 (stereo unspecified) ?
Return: class 0

Enquiry: Recorded call for CCS(=O)(=O)n1nc(-c2ccc(OC)cc2)nc1SC ?
Return: class 0

Enquiry: Recorded call for C=CCSc1nc2c(c(=O)[nH]1)C(C(C)C)C(C#N)=C(N)O2 (stereo unspecified) ?
Return: class 1

====

- target-or-system: Neuropeptide Y receptor type 1 (Homo sapiens) (UniProt P25929)
- experimental-details: blockers of human neuropeptide Y Y1 receptor – cell-based, primary screen (AID 1040);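 also: 0% = DMSO wells given NPY plus isoproterenol and 100% = isoproterenol alone without NPY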
- settings: HEK293-CNG Y1 cells, membrane potential fluorescence; at 3.6 µM; NPY at EC95, then isoproterenol
About 2,000 (1%) of roughly 200,000 compounds were called active.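 How the source made its calls: active means inhibition above the campaign mean inhibition of all tested compounds plus 3 SD (cut at about 20% in these data); inactive means the rest.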 What follows is part of a selection rich in actives, with near analogues and random picks from the rest.
Respond with a class label; see active, inactive

Use the examples below as a reference point.
>  <compound>
CC(C)Cn1cnc2c1c(=O)n(CC(O)c1ccccc1)c(=O)n2CC(C)C (configuration not stated)

>  <label>
active

$$$$
>  <compound>
Cn1c(=O)c2c(ncn2CCc2ccccc2)n(C)c1=O

>  <label>
inactive

$$$$
>  <compound>
CCSC1=NCCN1S(=O)(=O)c1ccc(F)cc1

>  <label>
inactive

$$$$
>  <compound>
CCCOc1ccc(C(=O)NCCc2ccccc2)cc1

>  <label>
inactive

$$$$
>  <compound>
CCc1ccccc1NC(=O)CN(C)C(=O)COc1ccc(C)nc1[N+](=O)[O-]

>  <label>
inactive

$$$$
>  <compound>
Cc1cccc(N2CCC(NCc3c(C(=O)N4CCCCC4)nc4c(C)cccn34)CC2)c1

>  <label>
inactive

$$$$
>  <compound>
CN(C)c1ccc(C(CNC(=O)c2ccc(F)cc2)c2c[nH]c3ccccc23)cc1 (configuration not stated)

>  <label>
inactive

$$$$
>  <compound>
O=C(NCC1CCCO1)c1ccc2ccccc2n1 (configuration not stated)

>  <label>
inactive

$$$$
>  <compound>
COc1ccc(C2CC(=O)Nc3sc(=N)c4c(N)c(C#N)c(N)nc4c32)cc1OC (configuration not stated)

>  <label>
active

$$$$
>  <compound>
CC(NC(=O)COC(=O)C1CCN(S(=O)(=O)c2ccccc2C(F)(F)F)CC1)c1ccccc1 (configuration not stated)

>  <label>
inactive

$$$$

Enquiry: Recorded call for CN(C)S(=O)(=O)c1cccc(NC(=O)COC(=O)c2cc(=O)[nH]c(=O)[nH]2)c1 ?
Return: inactive

Enquiry: Recorded call for N#Cc1c(N)nc2c3c(sc(=N)c2c1N)NC(=O)CC3c1ccccc1Cl (configuration not stated) ?
Return: inactive

Enquiry: Recorded call for CCCOc1ccc(C(=O)C(CCC(CNCC)C(=O)c2ccc(OCCC)cc2)CNCC)cc1 (configuration not stated) ?
Return: active

Enquiry: Recorded call for CC(=O)N1CCN(S(=O)(=O)c2cccc(C(=O)NC3CCC(C)CC3)c2)CC1 (configuration not stated) ?
Return: inactive

The measurements presented in this section are drawn from PubChem BioAssay AID1040.
